Hey, just so you know, these numbers are from patent US9815796B2.

- TARGET_DESC: Rhesus PDE2A3 (Macaca mulatta, UniProt B3VTJ2)
- Sequence (B3VTJ2 1-941): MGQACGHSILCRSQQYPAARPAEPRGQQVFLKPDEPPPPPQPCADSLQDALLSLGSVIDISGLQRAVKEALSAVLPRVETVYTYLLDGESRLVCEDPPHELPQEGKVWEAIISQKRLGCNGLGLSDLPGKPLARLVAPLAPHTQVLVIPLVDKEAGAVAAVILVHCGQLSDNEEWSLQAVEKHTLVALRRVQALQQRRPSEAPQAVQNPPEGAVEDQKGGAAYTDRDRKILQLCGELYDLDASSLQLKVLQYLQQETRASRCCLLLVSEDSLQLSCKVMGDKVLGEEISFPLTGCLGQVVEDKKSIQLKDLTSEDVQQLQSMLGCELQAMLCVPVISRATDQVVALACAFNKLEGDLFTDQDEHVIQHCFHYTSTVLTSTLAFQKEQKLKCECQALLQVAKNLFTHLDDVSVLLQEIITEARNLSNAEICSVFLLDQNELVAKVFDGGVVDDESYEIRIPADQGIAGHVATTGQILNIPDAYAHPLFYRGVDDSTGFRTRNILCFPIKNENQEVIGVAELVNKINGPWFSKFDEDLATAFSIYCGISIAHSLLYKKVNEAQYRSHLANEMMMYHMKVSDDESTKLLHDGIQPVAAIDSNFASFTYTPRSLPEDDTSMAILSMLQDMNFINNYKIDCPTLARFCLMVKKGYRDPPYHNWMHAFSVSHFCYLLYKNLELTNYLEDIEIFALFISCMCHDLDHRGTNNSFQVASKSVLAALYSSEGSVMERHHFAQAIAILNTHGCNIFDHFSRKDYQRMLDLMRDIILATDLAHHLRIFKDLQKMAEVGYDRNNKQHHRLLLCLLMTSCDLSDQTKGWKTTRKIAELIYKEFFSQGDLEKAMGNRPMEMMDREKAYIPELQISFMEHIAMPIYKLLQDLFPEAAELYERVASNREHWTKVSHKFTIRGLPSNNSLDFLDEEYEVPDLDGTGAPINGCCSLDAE
- PROTOCOL_DETAILS: PDE2 fluorescence polarization (IMAP FP) inhibition assay, rhesus enzyme
- Type: biochemical, rhesus macaque
- TEST_CONTEXT: Rhesus PDE2, Lab B; read-out: Rhesus PDE2 Ki (nM) - Lab B
MEASURED_ENDPOINT: Ki (nM)

[[record]]
compound = "CC[C@@H](NC(=O)c1cc(=O)[nH]c(COC)n1)c1ccc(OC(F)(F)F)cc1"
target_desc = "Rhesus PDE2A3 (Macaca mulatta, UniProt B3VTJ2)"
value_unit = "nM"
measurement = 53

[[record]]
compound = "CC(NC(=O)c1cc(=O)[nH]c(-c2ccccc2)n1)c1ccc(O)cc1 (centres unmarked)"
target_desc = "Rhesus PDE2A3 (Macaca mulatta, UniProt B3VTJ2)"
value_unit = "nM"
measurement = 8780

[[record]]
compound = "C[C@@H](NC(=O)c1cc(=O)[nH]c(-c2ccccc2)n1)c1cccc2ccccc12"
target_desc = "Rhesus PDE2A3 (Macaca mulatta, UniProt B3VTJ2)"
value_unit = "nM"
measurement = 2800

[[record]]
compound = "CC[C@@H](NC(=O)c1cc(=O)[nH]c(C)n1)c1ccc(S(F)(F)(F)(F)F)cc1"
target_desc = "Rhesus PDE2A3 (Macaca mulatta, UniProt B3VTJ2)"
value_unit = "nM"
measurement = 18

[[record]]
compound = "CC[C@@H](NC(=O)c1cc(=O)[nH]c(C(C)(C)c2ccc(OC)cc2)n1)c1ccc(C(F)(F)F)c(F)c1"
target_desc = "Rhesus PDE2A3 (Macaca mulatta, UniProt B3VTJ2)"
value_unit = "nM"
measurement = 111


a: C[C@@H](O)[C@@H](NC(=O)c1cc(=O)[nH]c(-c2ccccc2)n1)c1ccc(C(F)(F)F)cc1
b: O=C(NC(c1ccc(F)cc1)c1ccc(C(F)(F)F)cc1)c1cc(=O)[nH]c(-c2ccccc2)n1 (centres unmarked)
Of a and b , which shows the smaller Ki value? Select an item and report its label.
a
(a: 5.5 nM, b: 314 nM)

I: CC(C)[C@@H](NC(=O)c1cc(=O)[nH]c(C2CC2)n1)c1ccc(C(F)(F)F)c(F)c1
II: CC[C@@H](NC(=O)c1cc(=O)[nH]c(Cc2ccc(OC)cc2)n1)c1ccc(SC(F)(F)F)c(F)c1
Of I versus II , which is the one with smaller reported Ki? Lab log: write the label of the selected item as the result.
II
(II: 1.5 nM, I: 4 nM)

a: CC[C@@H](NC(=O)c1cc(=O)[nH]c(-c2ncccn2)n1)c1ccc(S(F)(F)(F)(F)F)cc1
b: CC(C)(C)[C@@H](NC(=O)c1cc(=O)[nH]c(C2CC2)n1)c1ccc(C(F)(F)F)c(F)c1
c: Cc1nc(C(=O)N[C@H](C)c2ccc(-c3ccc(C(F)(F)F)cc3)cc2)cc(=O)[nH]1
d: Cc1nc(C(=O)NC(C)(c2ccc(S(F)(F)(F)(F)F)cc2)C(C)C)cc(=O)[nH]1 (racemic) [Example 619]
e: C[C@@H](NC(=O)c1cc(=O)[nH]c(-c2nccs2)n1)c1ccc(C(F)(F)F)cc1
Kindly order the items shown according to Ki, from the highest value down. # answer = labels listed in requested order
e, c, d, a, b

I: CC(C)(C)[C@@H](NC(=O)c1cc(=O)[nH]c(C2CC2)n1)c1ccc(OC(F)(F)F)c(F)c1
II: CC(C)[C@@H](NC(=O)c1cc(=O)[nH]c(-c2ccccc2)n1)c1ccc(OC(F)(F)F)c(F)c1
Smaller Ki value, I vs II ? Identify your selection by its label.
I

P: CC(C)(C)[C@@H](NC(=O)c1cc(=O)[nH]c(-c2ccccc2)n1)c1ccc(C(F)(F)F)cc1
Q: CC1(C(NC(=O)c2cc(=O)[nH]c(C3CC3)n2)c2ccc(SC(F)(F)F)c(F)c2)CC1 (single isomer, unassigned) [Example 705]
When P and Q are compared, which has the higher number for Ki? Bench note: the answer is the label of the chosen record.
Q
(Q: 1070 nM, P: 1.2 nM)
